procedure-summary: Average particle diameter of preparation (Zetasizer Nano ZS)
Assay type: physicochemical
condition-label: average particle diameter of cationic lipid/nucleic acid complex; Example 118 preparation: compound/PEG-DMPE Na/DSPC/cholesterol with apo-b siRNA
attribute-measured: Particle diameter of Preparetion (nm)

I. CCCC/C=C\CCCCCCCCO[C@@H]1CN(C)C[C@H]1OCCCCCCCC/C=C\CCCC [Compound 47]
II. CCCCCCCCCCCCCCCCCCO[C@@H]1CNC[C@H]1OCCCCCCCCCCCCCCCCCC [Compound 39, (3R,4R)-3,4-bis(Octadecyloxy)pyrrolidine]
## Task Parameter check: reported Particle diameter of Preparetion is higher for which label, I or II ? Your choice should be expressed through its label.
## Result II
(II: 444.5 nm, I: 125.8 nm)

###

procedure-summary: Average particle diameter of preparation (Zetasizer Nano ZS)
Assay type: physicochemical
condition-label: average particle diameter of cationic lipid/nucleic acid complex; Example 118 preparation: compound/PEG-DMPE Na/DSPC/cholesterol with apo-b siRNA
attribute-measured: Particle diameter of Preparetion (nm)

molecule	value-unit	test-value
CCCCC/C=C\C/C=C\CCCCCCCCO[C@H]1C[N+](C)(C)C[C@H]1OCCCCCCCC/C=C\C/C=C\CCCCC.[Cl-]	nm	112.4
CCCCCCCC/C=C\CCCCCCCC(=O)OC[C@@H]1CNC[C@H]1COC(=O)CCCCCCC/C=C\CCCCCCCC (relative stereo)	nm	141.5
CCCCCCCC/C=C\CCCCCCCC(=O)OC[C@@H]1CN(C)C[C@H]1COC(=O)CCCCCCC/C=C\CCCCCCCC (relative stereo)	nm	129.6
CCCCC/C=C\C/C=C\CCCCCCCCO[C@H]1CN(C)C[C@H]1OCCCCCCCC/C=C\C/C=C\CCCCC	nm	135.8

1. CCCCCCCC/C=C\CCCCCCCC(=O)O[C@@H]1C[N+](C)(C)C[C@H]1OC(=O)CCCCCCC/C=C\CCCCCCCC.[Cl-]
2. CCCCCCCCCCCCCCCCO[C@@H]1CNC[C@H]1OCCCCCCCCCCCCCCCC
## Task # returns the entry with the larger Particle diameter of Preparetion; inputs 1 and 2 Record your answer as the label of the chosen record.
## Result 2

###

procedure-summary: Average particle diameter of preparation (Zetasizer Nano ZS)
Type: physicochemical
condition-label: average particle diameter of cationic lipid/nucleic acid complex; Example 118 preparation: compound/PEG-DMPE Na/DSPC/cholesterol with apo-b siRNA
attribute-measured: Particle diameter of Preparetion (nm)

molecule	test-value
CCCCCCCC/C=C\CCCCCCCCCCOCCN(C)CCOCCCCCCCCCC/C=C\CCCCCCCC	131.4
CCCCCCCC/C=C\CCCCCCCCOCCN(CCOCCCCCCCC/C=C\CCCCCCCC)C(=O)[C@@H](N)CCCN	135.1
CCCCC/C=C\C/C=C\CCCCCCCCOC[C@@H]1CN(C)C[C@H]1COCCCCCCCC/C=C\C/C=C\CCCCC (relative stereo)	139.1
CCCCCCCC/C=C\CCCCCCCCOCCN(CCOCCCCCCCC/C=C\CCCCCCCC)C(=O)CCN	136.3
CCCCC/C=C\C/C=C\CCCCCCCCO[C@@H]1CN(C(=O)CCN(C)C)C[C@H]1OCCCCCCCC/C=C\C/C=C\CCCCC	132.2
CCCCC/C=C\C/C=C\CCCCCCCC(=O)OC[C@@H]1CNC[C@H]1COC(=O)CCCCCCC/C=C\C/C=C\CCCCC (relative stereo)	125.6
CCCCC/C=C\C/C=C\CCCCCCCCO[C@@H]1CN(C(=O)[C@@H](N)CCCCN)C[C@H]1OCCCCCCCC/C=C\C/C=C\CCCCC	100.7
CCCCC/C=C\C/C=C\CCCCCCCCO[C@@H]1CN(CCCO)C[C@H]1OCCCCCCCC/C=C\C/C=C\CCCCC	120.3
CCCCCCCCCCCCCCO[C@@H]1CN(C)C[C@H]1OCCCCCCCCCCCCCC	150.2
CCCCCCCCCCC/C=C\CCCCCO[C@@H]1CNC[C@H]1OCCCCC/C=C\CCCCCCCCCCC	148.7
CCCCCCCC/C=C\CCCCCCCCOCCN(CCOCCCCCCCC/C=C\CCCCCCCC)C(=O)CN(C)C	121.5
CCCCC/C=C\C/C=C\CCCCCCCC(=O)O[C@@H]1CN(CC(O)CO)C[C@H]1OC(=O)CCCCCCC/C=C\C/C=C\CCCCC (stereo partly shown)	152.4
CCCCCC/C=C\CCCCCCCCO[C@@H]1CN(C)C[C@H]1OCCCCCCCC/C=C\CCCCCC	139.3
CCCCC/C=C\C/C=C\CCCCCCCC(=O)OCCN(CCOC(=O)CCCCCCC/C=C\C/C=C\CCCCC)C(=O)CN	133.2
CCCCCCCC/C=C\CCCCCCCCOCCN(CCOCCCCCCCC/C=C\CCCCCCCC)C(=O)CCCCCN	131.9
CCCCC/C=C\C/C=C\CCCCCCCCO[C@@H]1CN(CCC(=O)N(C)C)C[C@H]1OCCCCCCCC/C=C\C/C=C\CCCCC	151.8
CCCCCC/C=C\CCCCCCCCO[C@@H]1CNC[C@H]1OCCCCCCCC/C=C\CCCCCC	140.3
CCCCC/C=C\C/C=C\CCCCCCCC(=O)OCCN(CCOC(=O)CCCCCCC/C=C\C/C=C\CCCCC)C(=O)OCCCN(C)C	155.9
CCCCC/C=C\C/C=C\CCCCCCCCO[C@@H]1CN(C(=O)CCN)C[C@H]1OCCCCCCCC/C=C\C/C=C\CCCCC	151.3
CCCCC/C=C\C/C=C\CCCCCCCCCCOC[C@@H]1CN(C)C[C@H]1COCCCCCCCCCC/C=C\C/C=C\CCCCC (relative stereo)	144.9
CCCCCCCC/C=C\CCCCCCCC(=O)O[C@@H]1CN(C(=O)CCN(C)C)C[C@H]1OC(=O)CCCCCCC/C=C\CCCCCCCC	132.7
CCCCCCCCCCCCCCCCCCOCCN(C)CCOCCCCCCCCCCCCCCCCCC	151.3
CCCCCCCC/C=C\CCCCCCCCOCCN(CCOCCCCCCCC/C=C\CCCCCCCC)C(=O)CN	128.4
CCCCC/C=C\C/C=C\CCCCCCCC(=O)O[C@@H]1CNC[C@H]1OC(=O)CCCCCCC/C=C\C/C=C\CCCCC	139.6
CCCCCCCCCCCCCCCCOCCNCCOCCCCCCCCCCCCCCCC	145.6
CCCCC/C=C\C/C=C\CCCCCCCCOCCN(C)CCOCCCCCCCC/C=C\C/C=C\CCCCC	154.2
CCCCC/C=C\C/C=C\CCCCCCCC(=O)OC[C@@H]1CN(C)C[C@H]1COC(=O)CCCCCCC/C=C\C/C=C\CCCCC (relative stereo)	131.6
CCCCCCCCCCCCCCOCCNCCOCCCCCCCCCCCCCC	136.8

###

procedure-summary: Average particle diameter of preparation (Zetasizer Nano ZS)
Type: physicochemical
condition-label: average particle diameter of cationic lipid/nucleic acid complex; Example 118 preparation: compound/PEG-DMPE Na/DSPC/cholesterol with apo-b siRNA
Procedure: Preparations were produced using the compounds obtained in Examples 1 to 117, as follows. APO-B siRNA was used as the nucleic acid. […] The average particle diameter of the complex between the cationic lipis and the nucleic acid in each preparation was measured with a particle diameter measurement device (Malvern; Zetasizer Nano ZS).
attribute-measured: Particle diameter of Preparetion (nm)

compound	Particle diameter of Preparetion / nm
CCCCCCCC/C=C\CCCCCCCCOCCN(CCOCCCCCCCC/C=C\CCCCCCCC)CC(O)CO (stereo not shown)	125.7
CCCCCC/C=C\CCCCCCCCCCO[C@@H]1CN(C)C[C@H]1OCCCCCCCCCC/C=C\CCCCCC	135.0
CCCCCC/C=C\CCCCCCCCOCCN(C)CCOCCCCCCCC/C=C\CCCCCC	126.5
CCCCCCCCCCCCCCCCOCCN(C)CCOCCCCCCCCCCCCCCCC	133.6
CCCC/C=C\CCCCCCCCO[C@@H]1CNC[C@H]1OCCCCCCCC/C=C\CCCC	133.8
CCCCCC/C=C\CCCCCCCCOCCNCCOCCCCCCCC/C=C\CCCCCC [Compound 72, bis(2-((Z)-Hexadec-9-enyloxy)ethyl)amine]	130.6
CCCCC/C=C\C/C=C\CCCCCCCCO[C@@H]1CN(C(=O)CCCCCN)C[C@H]1OCCCCCCCC/C=C\C/C=C\CCCCC	146.0

###

procedure-summary: Average particle diameter of preparation (Zetasizer Nano ZS)
Type: physicochemical
condition-label: average particle diameter of cationic lipid/nucleic acid complex; Example 118 preparation: compound/PEG-DMPE Na/DSPC/cholesterol with apo-b siRNA
attribute-measured: Particle diameter of Preparetion (nm)

compound	value-unit	Particle diameter of Preparetion
CCCCC/C=C\C/C=C\CCCCCCCCO[C@@H]1CN(CC)C[C@H]1OCCCCCCCC/C=C\C/C=C\CCCCC	nm	142.6
CCCCCCCC/C=C\CCCCCCCCOCCN(CCOCCCCCCCC/C=C\CCCCCCCC)C(=O)[C@@H](N)CO	nm	125.4
CCCCC/C=C\C/C=C\CCCCCCCCO[C@@H]1CN(C2CCN(C)CC2)C[C@H]1OCCCCCCCC/C=C\C/C=C\CCCCC	nm	125.3
CCCCC/C=C\C/C=C\CCCCCCCC(=O)O[C@@H]1C[N+](C)(C)C[C@H]1OC(=O)CCCCCCC/C=C\C/C=C\CCCCC.[Cl-]	nm	107.5
CCCCCCCC/C=C\CCCCCCCC(=O)OCCN(CCOC(=O)CCCCCCC/C=C\CCCCCCCC)C(=O)CCN(C)C	nm	129.6
CCCCC/C=C\C/C=C\CCCCCCCCO[C@@H]1CN(C(=O)CN)C[C@H]1OCCCCCCCC/C=C\C/C=C\CCCCC	nm	125.9
CCCCCCCCCCCCCCCCCCO[C@@H]1CN(C)C[C@H]1OCCCCCCCCCCCCCCCCCC	nm	192.0
CCCCCCCC/C=C\CCCCCCCCOC[C@@H]1C[N+](C)(C)C[C@H]1COCCCCCCCC/C=C\CCCCCCCC.[Cl-] (relative stereo)	nm	112.0
CCCCCCCC/C=C\CCCCCCCCOCCN(CCOCCCCCCCC/C=C\CCCCCCCC)C(=O)[C@@H](N)CCCCN	nm	137.3
CCCCC/C=C\C/C=C\CCCCCCCCO[C@@H]1CNC[C@H]1OCCCCCCCC/C=C\C/C=C\CCCCC	nm	137.4
CCCCCCCC/C=C\CCCCCCCCCCO[C@@H]1CNC[C@H]1OCCCCCCCCCC/C=C\CCCCCCCC	nm	131.3
CCCCC/C=C\C/C=C\CCCCCCCC(=O)O[C@@H]1CN(C(=O)CCN(C)C)C[C@H]1OC(=O)CCCCCCC/C=C\C/C=C\CCCCC	nm	122.5
CCCCC/C=C\C/C=C\CCCCCCCC(=O)O[C@@H]1CN(C(=O)CN(C)C)C[C@H]1OC(=O)CCCCCCC/C=C\C/C=C\CCCCC	nm	133.9
CCCCCCCC/C=C\CCCCCCCCOC[C@@H]1CNC[C@H]1COCCCCCCCC/C=C\CCCCCCCC (relative stereo)	nm	148.7
